system: Fibroblast; test: Multiplex assay against human fibroblast; format: toxicity, cell-based; details: 12 h, 10 µM, compound concentration 10 uM, replicate 2
ENDPOINT: Population Mitochondria Different-Phenotype (%)
Give a bare numeral; the unit % is implied.

COMPOUND	VAL
Cc1c(Nc2ccc(S(=O)(=O)N3CCN(C)CC3)cc2F)nc2ccc(Nc3cnn(C4CC4)c3)cn2c1=O	0
c1ccc(-c2oc3ncnc(NC[C@@H]4CCCO4)c3c2-c2ccccc2)cc1	56
CC(Cc1ccc(O)c(O)c1)C(C)Cc1ccc(O)c(O)c1 (centres undefined) [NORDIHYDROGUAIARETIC ACID]	10
CN1C(=O)[C@@H](NC(=O)c2cc3ccccc3[nH]2)N=C(c2ccccc2)c2ccccc21 [DEVAZEPIDE]	48

Next, consider the following compound.
Reported Population Mitochondria Different-Phenotype (%) ( CC[C@H](Nc1ncnc2[nH]cnc12)c1nc2cccc(F)c2c(=O)n1-c1ccccc1 ) = 31

----------
tested on: Fibroblast; assay: Multiplex assay against human fibroblast; format: toxicity, cell-based; conditions: 24 h, 10 µM, compound concentration 10 uM, replicate 1
Property: Population Pyknosed Nuclei (%); scope: individual molecules
Give a bare numeral; the unit % is implied.

MOLECULE	STUDY_TARGET	VAL
Cc1c(P(=S)(c2ccccc2)c2ccccc2)n2ccccc2[n+]1C/C=C/c1ccccc1.[Br-]	Fibroblast	71
Cc1ccc(S(=O)(=O)NC2c3ccccc3Oc3ccccc32)cc1	Fibroblast	11
CC(Cc1ccc(O)c(O)c1)C(C)Cc1ccc(O)c(O)c1 (stereo not given) [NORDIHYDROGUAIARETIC ACID]	Fibroblast	19
CCOC(=O)CCNc1cc(N2CCc3ccccc3CC2)nc(-c2ccccn2)n1	Fibroblast	15

Reported Population Pyknosed Nuclei (%) ( CCCCCNC(=N)N/N=C/c1c[nH]c2ccc(OC)cc12.O=C(O)/C=C\C(=O)O [TEGASEROD MALEATE] ) = 53

Reported Population Pyknosed Nuclei (%) ( CC[C@@]1(O)C(=O)OCc2c1cc1n(c2=O)Cc2cc3ccccc3nc2-1 [CAMPTOTHECIN] ) = 19

----------
system: U2OS; assay: Multiplex assay against U2OS; type: toxicity, cell-based; conditions: human, 24 h, 10 µM, compound concentration 10 uM, replicate 2
Property: Population Fragmented Nuclei (%); scope: individual compounds
Give a bare numeral; the unit % is implied.

Here is how some compounds turned out for Population Fragmented Nuclei (%).
COMPOUND	STUDY_TARGET	ENDPOINT	VAL
CC[C@@]1(O)C(=O)OCc2c1cc1n(c2=O)Cc2cc3ccccc3nc2-1 [CAMPTOTHECIN]	U2OS	Population Fragmented Nuclei (%)	25
CC[C@H](Nc1ncnc2[nH]cnc12)c1nc2cccc(F)c2c(=O)n1-c1ccccc1 [IDELALISIB]	U2OS	Population Fragmented Nuclei (%)	9
CCCc1cc(C)[nH]c(=O)c1CNC(=O)c1cc(-c2ccc(N3CCN(C(C)C)CC3)nc2)cc2c1cnn2C(C)C	U2OS	Population Fragmented Nuclei (%)	8
CC[C@@H]1C(=O)N(C)c2cnc(Nc3ccc(C(=O)NC4CCN(C)CC4)cc3OC)nc2N1C1CCCC1 [BI-2536]	U2OS	Population Fragmented Nuclei (%)	22
CC(C)[C@H](CO)Nc1nc(Nc2cccc(Cl)c2)c2ncn(C(C)C)c2n1 [PURVALANOLA]	U2OS	Population Fragmented Nuclei (%)	16

Reported Population Fragmented Nuclei (%) ( Cc1c(P(=S)(c2ccccc2)c2ccccc2)n2ccccc2[n+]1C/C=C/c1ccccc1.[Br-] ) = 23

Reported Population Fragmented Nuclei (%) ( CC(C)c1cc(Nc2nc(N3CCC[C@H](N)C3)ncc2C(N)=O)cc(C(C)C)n1 ) = 23

Reported Population Fragmented Nuclei (%) ( CN1C(=O)[C@@H](NC(=O)c2cc3ccccc3[nH]2)N=C(c2ccccc2)c2ccccc21 [DEVAZEPIDE] ) = 28
